Data origin, for the record: the supplement of paper PMC10598134

Assay: collision cross section of modified peptide (TIMS, N2, iRT-aligned); higher = larger / more extended gas-phase ion
Conditions: charge state: 2; modification: Dimethyl (K)
I'd be grateful if you could share measured collision cross section for these entries.
Numbers only, in Å².

INSERT INTO results (macromolecule_sequence, test_result) VALUES
  ('IINEPTAAAIAYGLDKK [_IINEPTAAAIAYGLDK(Dimethyl (K))K_]', 490.46),
  ('SLGEPAAGEGSAKR [_SLGEPAAGEGSAK(Dimethyl (K))R_]', 415.22),
  ('DTGEKLTVAENEAETK [_DTGEK(Dimethyl (K))LTVAENEAETK_]', 442.93),
  ('LQEKVESAQSEQK [_LQEK(Dimethyl (K))VESAQSEQK_]', 412.95),
  ('LEEVTGKLQVAR [_LEEVTGK(Dimethyl (K))LQVAR_]', 394.61);

Give one value of collision cross section per listed sequence.
1. ILDLKTGTVK [_ILDLK(Dimethyl (K))TGTVK_]
2. DLSTVEALQNLKNLK [_DLSTVEALQNLK(Dimethyl (K))NLK_]
3. SGKFTQQDIDEAK [_SGK(Dimethyl (K))FTQQDIDEAK_]

1: 355.49; 2: 476.15; 3: 408.63

Give one value of collision cross section per listed sequence.
1. VGVEVPDVNIEGPEGKLK [_VGVEVPDVNIEGPEGK(Dimethyl (K))LK_]
2. GSLEKGSPEDK [_GSLEK(Dimethyl (K))GSPEDK_]
3. FDDTNPEKEEAK [_FDDTNPEK(Dimethyl (K))EEAK_]

1: 456.47; 2: 362.2; 3: 399.09

---

Experiment: collision cross section of modified peptide (TIMS, N2, iRT-aligned); higher = larger / more extended gas-phase ion
Conditions: charge state: 3; modification: Methyl (R)
I'd be grateful if you could share measured collision cross section for these entries.
Answers are plain numbers, in Å².

The cases that follow already have their collision cross section on record.
INSERT INTO results (substance, test_result) VALUES
  ('SRGAIISQYYNR [_SR(Methyl (R))GAIISQYYNR_]', 476.32),
  ('VRLQTTLR [_VR(Methyl (R))LQTTLR_]', 439.94),
  ('AGRGFSLEELR [_AGR(Methyl (R))GFSLEELR_]', 460.11),
  ('HFGPVPPSQGRGR [_HFGPVPPSQGR(Methyl (R))GR_]', 491.26),
  ('FRSGNYR [_FR(Methyl (R))SGNYR_]', 399.51);

Give one value of collision cross section per listed substance.
1. SHLRHAIPSAER [_SHLR(Methyl (R))HAIPSAER_]
2. FSHSVQNSERGK [_FSHSVQNSER(Methyl (R))GK_]
3. VLATQPGPGRGR [_VLATQPGPGR(Methyl (R))GR_]

1. 477.29
2. 465.06
3. 455.74

Give one value of collision cross section per listed substance.
1. PLRAASPFR [_PLR(Methyl (R))AASPFR_]
2. PLPVALQTRLAK [_PLPVALQTR(Methyl (R))LAK_]
3. LVLPSQAQARLPSGEVVK [_LVLPSQAQAR(Methyl (R))LPSGEVVK_]
4. SRGGGGNFGPGPGSNFR [_SR(Methyl (R))GGGGNFGPGPGSNFR_]
5. GGNFGGRGGYGGGGGGSR [_GGNFGGR(Methyl (R))GGYGGGGGGSR_]
6. GRGGPGPAQR [_GR(Methyl (R))GGPGPAQR_]

1. 447.48
2. 474
3. 522.24
4. 461.66
5. 462.43
6. 431.84

Give one value of collision cross section per listed substance.
1. YRGDYDR [_YR(Methyl (R))GDYDR_]
2. GRGVGSPEPGPTAPYLGR [_GR(Methyl (R))GVGSPEPGPTAPYLGR_]
3. LRQQLQAK [_LR(Methyl (R))QQLQAK_]
4. GRGAAAAGGPQR [_GR(Methyl (R))GAAAAGGPQR_]
5. GGSGGRGVSVSSAR [_GGSGGR(Methyl (R))GVSVSSAR_]
6. RLPTTGYLVYR [_R(Methyl (R))LPTTGYLVYR_]

408.46
520.34
413.25
434.02
464.84
476.6

Give one value of collision cross section per listed substance.
1. GGSAGGRGFFR [_GGSAGGR(Methyl (R))GFFR_]
2. YSRGAGLGFSTAPNK [_YSR(Methyl (R))GAGLGFSTAPNK_]
3. GRGTGEAEEEYVGPR [_GR(Methyl (R))GTGEAEEEYVGPR_]

1: 426.87; 2: 478.19; 3: 491.55
